Examples of molecules with documented melting point follow.

A selection of reference data follows.
{"columns": ["Molecule", "melting point"],
 "data": [
  ["CN(Cc1cc2c3c(c1)c(=O)c(C(=O)NCc1ccc(Cl)cc1)cn3CC(=O)N2C)CC(O)c1ccc(C#N)s1 (racemic)", "122 to 126 °C"],
  ["CN(Cc1cc2c3c(c1)c(=O)c(C(=O)NCc1ccc(Cl)cc1)cn3CC(=O)N2C)CC(O)Cc1ccccc1 (racemic)", "121 to 127 °C"]
]}

Give the measured melting point for CN(Cc1cc2c3c(c1)c(=O)c(C(=O)NCc1ccc(F)cc1)cn3CC(=O)N2C)C[C@@H](O)c1cnccn1 108 to 110 °C

Give the measured melting point for CN(Cc1cc2c3c(c1)c(=O)c(C(=O)NCc1ccc(F)cc1)cn3CC(=O)N2C)C[C@@H](O)c1ccccc1 150 to 152 °C

Give the measured melting point for Cc1ccc(C(O)CN(C)Cc2cc3c4c(c2)c(=O)c(C(=O)NCc2ccc(Cl)cc2)cn4CC(=O)N3C)o1 (racemic) 159 to 161 °C

Give the measured melting point for CN(Cc1cc2c3c(c1)c(=O)c(C(=O)NCc1ccc(Cl)cc1)cn3CC(=O)N2C)CC(O)c1ccoc1 (racemic) 145 to 148 °C

Give the measured melting point for CN(Cc1cc2c3c(c1)c(=O)c(C(=O)NCc1ccc(F)cc1)cn3CC(=O)N2C)C[C@@H](O)c1cccs1 113 to 115 °C

---

# Target System: HCMV polymerase (Human cytomegalovirus)
# Sequence (P08546 whole entry): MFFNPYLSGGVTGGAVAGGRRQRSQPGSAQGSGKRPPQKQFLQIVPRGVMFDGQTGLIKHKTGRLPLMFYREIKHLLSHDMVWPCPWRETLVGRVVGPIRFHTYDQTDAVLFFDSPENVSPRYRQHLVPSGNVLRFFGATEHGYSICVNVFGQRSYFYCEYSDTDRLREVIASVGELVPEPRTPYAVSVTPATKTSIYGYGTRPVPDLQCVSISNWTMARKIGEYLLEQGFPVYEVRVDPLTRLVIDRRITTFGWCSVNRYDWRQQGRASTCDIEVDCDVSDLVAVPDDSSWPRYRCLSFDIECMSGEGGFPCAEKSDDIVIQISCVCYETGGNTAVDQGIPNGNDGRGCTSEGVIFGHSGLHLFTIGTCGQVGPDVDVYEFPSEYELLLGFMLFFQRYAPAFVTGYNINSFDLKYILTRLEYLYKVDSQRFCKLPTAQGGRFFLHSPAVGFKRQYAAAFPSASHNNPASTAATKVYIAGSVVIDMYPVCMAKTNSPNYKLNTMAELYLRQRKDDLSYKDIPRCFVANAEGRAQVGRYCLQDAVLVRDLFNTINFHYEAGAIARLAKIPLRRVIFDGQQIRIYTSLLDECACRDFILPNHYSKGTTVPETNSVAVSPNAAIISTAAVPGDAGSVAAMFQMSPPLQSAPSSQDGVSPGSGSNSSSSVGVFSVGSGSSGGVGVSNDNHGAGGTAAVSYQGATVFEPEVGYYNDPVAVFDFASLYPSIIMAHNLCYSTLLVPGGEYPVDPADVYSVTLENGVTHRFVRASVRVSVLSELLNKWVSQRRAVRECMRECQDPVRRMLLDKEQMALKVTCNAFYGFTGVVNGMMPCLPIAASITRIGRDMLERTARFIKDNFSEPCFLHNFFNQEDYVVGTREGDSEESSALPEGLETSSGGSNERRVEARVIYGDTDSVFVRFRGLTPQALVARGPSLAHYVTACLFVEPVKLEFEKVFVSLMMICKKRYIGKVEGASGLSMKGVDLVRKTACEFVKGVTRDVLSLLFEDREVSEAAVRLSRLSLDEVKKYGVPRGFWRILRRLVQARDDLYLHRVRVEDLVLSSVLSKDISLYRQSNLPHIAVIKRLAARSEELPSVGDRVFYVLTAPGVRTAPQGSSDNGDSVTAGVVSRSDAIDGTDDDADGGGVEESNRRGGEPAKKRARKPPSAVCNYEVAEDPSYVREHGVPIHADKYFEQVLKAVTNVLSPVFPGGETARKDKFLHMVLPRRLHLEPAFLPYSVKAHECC
# Assay Method Text: HCMV polymerase assay (scintillation proximity assay), original and modified version
# Test Context: SPA; several values per example = repeat determinations, assay version not given; read-out: CMV Polymerase IC50
# Protocol: The HCMV polymerase assay is performed using a scintillation proximity assay (SPA) as described in several references, such as N.D. Cook, et al., Pharmaceutical Manufacturing International, pages 49-53 (1992); K. Takeuchi, Laboratory Practice, September issue (1992); U.S. Pat. No. 4,568,649 (1986); which are incorporated by reference herein. Reactions are performed in 96-well plates. […] Plates are incubated 10 min. at 37° C., then equilibrated to room temperature, and counted on a Packard Topcount. […]
Reported Metric: log10 of IC50 (log10 of the value in nM)
Hey, these are logged values: log10 of IC50, nM being the unit before logging.

A selection of reference data follows.
{"columns": ["Compound", "log10 of IC50"],
 "data": [
  ["CN(Cc1cc2c3c(c1)c(=O)c(C(=O)NCc1ccc(Cl)cc1)cn3CC(=O)N2C)C[C@@H](O)c1ccccn1 [Example 9]", 2.48],
  ["COc1cccc(C(O)CN(C)Cc2cc3c4c(c2)c(=O)c(C(=O)NCc2ccc(Cl)cc2)cn4CC(=O)N3C)c1 (racemic) [Example 18]", 2.26],
  ["CN(Cc1cc2c3c(c1)c(=O)c(C(=O)NCc1ccc(F)cc1)cn3CC(=O)N2C)C[C@H](O)c1cc2ccccc2o1 [Example 37]", 3.08],
  ["CN(Cc1cc2c3c(c1)c(=O)c(C(=O)NCc1ccc(F)cc1)cn3CC(=O)N2C)C[C@@H](O)c1ccsc1 [Example 28]", 2.84],
  ["CN(Cc1cc2c3c(c1)c(=O)c(C(=O)NCc1ccc(Cl)cc1)cn3CC(=O)N2C)CC(O)c1ncccn1 (racemic) [Example 19]", 2.69],
  ["CN(Cc1cc2c3c(c1)c(=O)c(C(=O)NCc1ccc(Cl)cc1)cn3CC(=O)N2C)CC(O)c1ccco1 (racemic) [Example 5]", 2.38]
]}

Give the measured log10 of IC50 for CN(Cc1cc2c3c(c1)c(=O)c(C(=O)NCc1ccc(F)cc1)cn3CC(=O)N2C)CC(O)c1cc2ccccc2o1 (racemic) [Example 33] 1.51

---

Reported Metric: melting point

A selection of reference data follows.
{"columns": ["Compound", "melting point"],
 "data": [
  ["CN(Cc1cc2c3c(c1)c(=O)c(C(=O)NCc1ccc(F)cc1)cn3CC(=O)N2C)CC(O)c1cc2ccccc2o1 (racemic) [Example 33]", "161 to 163 °C"],
  ["CN(Cc1cc2c3c(c1)c(=O)c(C(=O)NCc1ccc(F)cc1)cn3CC(=O)N2C)C[C@@H](O)c1ccsc1 [Example 28]", "150 to 152 °C"],
  ["CN(Cc1cc2c3c(c1)c(=O)c(C(=O)NCc1ccc(Cl)cc1)cn3CC(=O)N2C)C[C@@H](O)c1ccsc1 [Example 14]", "137 to 139 °C"],
  ["Cc1cc(C(O)CN(C)Cc2cc3c4c(c2)c(=O)c(C(=O)NCc2ccc(Cl)cc2)cn4CC(=O)N3C)c(C)o1 (racemic) [Example 7]", "157 to 160 °C"],
  ["CN(Cc1cc2c3c(c1)c(=O)c(C(=O)NCc1ccc(F)cc1)cn3CC(=O)N2C)C[C@@H](O)c1cc2ccccc2o1 [Example 36]", "94 to 96 °C"],
  ["CN(Cc1cc2c3c(c1)c(=O)c(C(=O)NCc1ccc(Cl)cc1)cn3CC(=O)N2C)CC(O)c1ccc(O)cc1 (racemic) [Example 2]", "145 to 148 °C"]
]}

Give the measured melting point for CN(Cc1cc2c3c(c1)c(=O)c(C(=O)NCc1ccc(Cl)cc1)cn3CC(=O)N2C)C[C@@H](O)c1cnccn1 [Example 21] 97 to 98 °C

Give the measured melting point for CN(Cc1cc2c3c(c1)c(=O)c(C(=O)NCc1ccc(Cl)cc1)cn3CC(=O)N2CCO)C[C@@H](O)c1ccco1 [Example 31] 166 to 167 °C

Give the measured melting point for CN(Cc1cc2c3c(c1)c(=O)c(C(=O)NCc1ccc(Cl)cc1)cn3CC(=O)N2C)CC(O)c1ccc2ccccc2n1 (racemic) [Example 16] 173 to 177 °C

Give the measured melting point for CN(Cc1cc2c3c(c1)c(=O)c(C(=O)NCc1ccc(F)cc1)cn3CC(=O)N2C)C[C@@H](O)c1nccs1 [Example 27] 156 to 158 °C

Give the measured melting point for COc1cc(C(O)CN(C)Cc2cc3c4c(c2)c(=O)c(C(=O)NCc2ccc(Cl)cc2)cn4CC(=O)N3C)ccc1O (racemic) [Example 10] 133 to 136 °C

Give the measured melting point for CN(Cc1cc2c3c(c1)c(=O)c(C(=O)NCc1ccc(Cl)cc1)cn3CC(=O)N2C)C[C@@H](O)c1cccnc1 [Example 13] 131 to 135 °C

Give the measured melting point for CN(Cc1cc2c3c(c1)c(=O)c(C(=O)NCc1ccc(Cl)cc1)cn3CC(=O)N2C)CC(O)c1ncccn1 (racemic) [Example 19] 168 to 170 °C

---

Examples of compounds with documented melting point follow.

{"columns": ["Compound", "melting point"],
 "data": [
  ["COc1cccc(C(O)CN(C)Cc2cc3c4c(c2)c(=O)c(C(=O)NCc2ccc(Cl)cc2)cn4CC(=O)N3C)c1 (racemic) [Example 18]", "154 to 156 °C"],
  ["Cc1cccc(C(O)CN(C)Cc2cc3c4c(c2)c(=O)c(C(=O)NCc2ccc(Cl)cc2)cn4CC(=O)N3C)n1 (racemic) [Example 8]", "156 to 158 °C"]
]}

Shifting focus to the compound that follows.
Give the measured melting point for CN(Cc1cc2c3c(c1)c(=O)c(C(=O)NCc1ccc(Cl)cc1)cn3CC(=O)N2C)CC(O)c1ccco1 (racemic) [Example 5] 153 to 155 °C

---

# Target System: UniProt:P08546
# Assay Method Text: HCMV polymerase assay (scintillation proximity assay), original and modified version
# Test Context: SPA; several values per example = repeat determinations, assay version not given; read-out: CMV Polymerase IC50
Examples of molecules with documented pIC50 follow.
Schema: pIC50 number; meaning minus log10 of the concentration expressed in molar units.

A selection of reference data follows.
{"columns": ["Molecule", "Endpoint Result"],
 "data": [
  ["COc1cc(C(O)CN(C)Cc2cc3c4c(c2)c(=O)c(C(=O)NCc2ccc(Cl)cc2)cn4CC(=O)N3C)ccc1O (racemic) [Example 10]", 6.62],
  ["CN(Cc1cc2c3c(c1)c(=O)c(C(=O)NCc1ccc(Cl)cc1)cn3CC(=O)N2C)C[C@@H](O)c1ccsc1 [Example 14]", 6.72]
]}

Shifting focus to the molecule that follows.
Give the measured pIC50 for CN(Cc1cc2c3c(c1)c(=O)c(C(=O)NCc1ccc(Cl)cc1)cn3CC(=O)N2C)CC(O)c1ccc(C#N)s1 (racemic) [Example 20] 6.39

---

# Target System: Alpha Polymerase (Homo sapiens)
# Sequence (P09884 whole entry): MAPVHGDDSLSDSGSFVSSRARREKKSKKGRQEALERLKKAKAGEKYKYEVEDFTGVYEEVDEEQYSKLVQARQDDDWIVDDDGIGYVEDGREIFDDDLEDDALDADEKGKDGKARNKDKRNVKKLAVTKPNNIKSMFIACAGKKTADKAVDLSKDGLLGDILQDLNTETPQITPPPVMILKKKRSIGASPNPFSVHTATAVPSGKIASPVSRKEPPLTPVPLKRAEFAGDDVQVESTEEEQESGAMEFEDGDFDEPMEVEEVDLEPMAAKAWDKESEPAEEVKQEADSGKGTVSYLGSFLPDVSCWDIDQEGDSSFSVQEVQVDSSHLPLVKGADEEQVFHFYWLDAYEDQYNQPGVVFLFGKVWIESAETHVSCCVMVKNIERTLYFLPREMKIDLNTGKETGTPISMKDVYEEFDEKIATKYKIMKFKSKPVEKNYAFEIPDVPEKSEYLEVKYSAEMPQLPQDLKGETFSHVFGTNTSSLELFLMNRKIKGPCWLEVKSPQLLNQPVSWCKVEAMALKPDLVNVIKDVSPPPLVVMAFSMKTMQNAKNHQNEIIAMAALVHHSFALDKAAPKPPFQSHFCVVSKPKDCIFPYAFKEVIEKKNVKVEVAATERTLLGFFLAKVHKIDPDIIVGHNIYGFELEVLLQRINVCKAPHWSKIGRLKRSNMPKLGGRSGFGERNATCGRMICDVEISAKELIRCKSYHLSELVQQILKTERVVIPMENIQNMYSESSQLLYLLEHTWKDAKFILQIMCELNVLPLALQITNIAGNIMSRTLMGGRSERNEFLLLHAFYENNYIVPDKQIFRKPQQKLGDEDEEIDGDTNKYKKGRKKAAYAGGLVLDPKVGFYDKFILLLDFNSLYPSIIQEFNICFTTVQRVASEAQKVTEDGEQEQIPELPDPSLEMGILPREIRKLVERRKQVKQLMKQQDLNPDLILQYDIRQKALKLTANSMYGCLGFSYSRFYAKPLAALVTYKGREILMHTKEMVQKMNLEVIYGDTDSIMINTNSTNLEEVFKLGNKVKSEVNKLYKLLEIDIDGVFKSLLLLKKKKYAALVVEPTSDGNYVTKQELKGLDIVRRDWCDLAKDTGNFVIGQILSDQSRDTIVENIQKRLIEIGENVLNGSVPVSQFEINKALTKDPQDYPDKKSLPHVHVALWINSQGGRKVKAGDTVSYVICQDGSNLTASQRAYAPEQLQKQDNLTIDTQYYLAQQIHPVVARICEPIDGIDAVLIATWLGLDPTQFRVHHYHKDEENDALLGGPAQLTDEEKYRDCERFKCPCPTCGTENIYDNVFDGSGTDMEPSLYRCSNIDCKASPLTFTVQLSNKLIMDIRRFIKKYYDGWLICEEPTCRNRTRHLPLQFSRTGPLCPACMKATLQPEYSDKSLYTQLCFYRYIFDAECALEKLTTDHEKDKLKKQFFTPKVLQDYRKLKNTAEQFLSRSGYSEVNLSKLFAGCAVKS
Reported Metric: IC50

A selection of reference data follows.
{"columns": ["Compound", "IC50"],
 "data": [
  ["CN(Cc1cc2c3c(c1)c(=O)c(C(=O)NCc1ccc(Cl)cc1)cn3CC(=O)N2C)CC(O)c1cc2ccccc2o1 (racemic)", "> 5 µM"],
  ["CN(Cc1cc2c3c(c1)c(=O)c(C(=O)NCc1ccc(Cl)cc1)cn3CC(=O)N2C)CC(O)c1ccc(O)cc1 (racemic)", "> 5 µM"],
  ["CN(Cc1cc2c3c(c1)c(=O)c(C(=O)NCc1ccc(Cl)cc1)cn3CC(=O)N2C)C[C@@H](O)c1cccnc1", "> 20 µM"]
]}

Give the measured IC50 for CN(Cc1cc2c3c(c1)c(=O)c(C(=O)NCc1ccc(Cl)cc1)cn3CC(=O)N2C)CC(O)c1ccc2ccccc2n1 (racemic) > 20 µM

Give the measured IC50 for CN(Cc1cc2c3c(c1)c(=O)c(C(=O)NCc1ccc(Cl)cc1)cn3CC(=O)N2C)C[C@@H](O)c1cnccn1 > 10 µM
